Tested on: CAKI-1 renal
method.notes: NCI tumour cell line growth inhibition, 48 h
measured.endpoint: TGI (µM)
// note: answer is a bare numeric in µM

[[record]]
chemical_smiles = "Cc1cc2c(cc1Cl)SC(=Nc1ccc(Cl)cc1)N(S(=O)(=O)c1ccccc1)S2(=O)=O"
measured_endpoint = "TGI"
result_unit = "µM"
reported_measurement = 23.4


// next entry
Exercise: Item COc1cc2cccc(N=Cc3cccc(OC)c3OC(C)C)c2cc1OC has what recorded TGI?
Solution: 42.9

----------
System: HCC-2998 colon
method.notes: NCI tumour cell line growth inhibition, 48 h; in the data active = GI50 below about 0.43 µM; inactive = the rest
Output constraint: value belongs to Y (active), N (inactive)

Completed entries (count: 6):
[[record]]
compound = "Cc1cc(N/N=C/c2nc(-c3ccc(Br)cc3)oc2C)c2cc(Br)ccc2n1"
assigned_label = "N"

[[record]]
compound = "CC(=O)O[C@H](C[C@H](C(C)C)N(C)C(=O)[C@@H](NC(=O)[C@H]1CCCCN1C)C(C)C)c1nc(C(=O)N[C@@H](Cc2ccccc2)C[C@H](C)C(=O)O)c(CCOCc2ccccc2)s1"
assigned_label = "Y"

[[record]]
compound = "COc1cc2c(c(OC)n1)[C@]1(O)[C@H](O)[C@H](CN(C)C)[C@@H](c3ccccc3)[C@]1(c1ccc(C#N)cc1)O2"
assigned_label = "Y"

[[record]]
compound = "O=C(Nc1ccc(-c2ccccc2)cc1)C1CCN(S(=O)(=O)c2ccccc2Cl)CC1"
assigned_label = "N"

[[record]]
compound = "COCCOc1cnc2ccn([C@H](C)c3nnc4c(F)cc(-c5cnn(C)c5)cn34)c(=O)c2c1"
assigned_label = "N"

[[record]]
compound = "CC(C)S(=O)(=O)c1ccccc1Nc1nc(Nc2cccc(NC(=O)CN)c2)ncc1Cl"
assigned_label = "Y"


Exercise: What is the recorded call for this compound in the test? COc1ccc2c(c1)C(C)Cc1c(ncnc1-n1c(C)nc3ccccc31)N2C (stereo not drawn)
Solution: N

Exercise: What is the recorded call for this compound in the test? CN(CCCNC(=O)Cc1ccc2ccc3cccc4ccc1c2c34)CCCNc1cc(-c2ccc3ccccc3c2)nc2ccccc12
Solution: N

----------
System: BT-549 breast
method.notes: NCI tumour cell line growth inhibition, 48 h; in the data active means GI50 below about 0.43 µM; inactive means the rest
Output constraint: value belongs to 1 (yes) for active, 0 (no) for inactive

[[record]]
compound = "O=[N+]([O-])c1ccc2c(c1)C(c1ccccc1Cl)=Nc1cn[nH]c1N2"
tgt = "BT-549 breast"
assigned_label = "0 (no)"


Exercise: What is the recorded call for this compound in the test? Cc1cc2c(cc1Cl)SC(=Nc1ccc(Cl)cc1)N(S(=O)(=O)c1ccccc1)S2(=O)=O
Solution: 0 (no)

Exercise: What is the recorded call for this compound in the test? COc1ccc2c(c1)C(C)Cc1c(ncnc1-n1c(C)nc3ccccc31)N2C (configuration not stated)
Solution: 0 (no)

----------
Tested on: PC-3 prostate
method.notes: NCI tumour cell line growth inhibition, 48 h
measured.endpoint: TGI

Field: example entries. Status: answers known.
[[record]]
molecule = "CC(=O)O[C@H]1C#C/C=C\\C#CC[C@@H]2C(=O)N[C@@H]12"
measured_endpoint = "TGI"
reported_measurement = "> 100 µM"

[[record]]
molecule = "O=C(Nc1ccc(-n2cc(-c3ccncc3)c(-c3ccc(Cl)c(O)c3)n2)cc1)Nc1ccc(Cl)c(C(F)(F)F)c1"
measured_endpoint = "TGI"
reported_measurement = "9.63 µM"

[[record]]
molecule = "C=C1C(=O)CC2C(=O)C(C)(O)CC/C=C(\\C)C(=O)CC12 (centres undefined)"
measured_endpoint = "TGI"
reported_measurement = "83 µM"

[[record]]
molecule = "COc1cc(C2SCC(=O)N2c2ccc(-c3ccc(-n4c(-c5ccccc5)nc5ccccc5c4=O)cc3)cc2)cc(OC)c1OC (centres undefined)"
measured_endpoint = "TGI"
reported_measurement = "41.5 µM"

[[record]]
molecule = "COc1cccc(/C(COc2ccc3c(c2)oc(=O)c2cc(OC)ccc23)=N/O)c1"
measured_endpoint = "TGI"
reported_measurement = "> 100 µM"


Exercise: Item O=C(O)CC[N+]1=CCC(c2ccccc2)(c2ccccc2)O1 has what recorded TGI?
Solution: > 100 µM

Exercise: Item Cc1cc(S(=O)(=O)N/N=C(\Sc2cc(Cl)c(C)cc2S(N)(=O)=O)c2ccc(Cl)cc2)c(Cl)cc1Cl has what recorded TGI?
Solution: > 100 µM

Exercise: Item Cc1ccc2nc(Cl)c(/C=N/N3C(=O)/C(=C/c4ccccc4S)N=C3c3ccccc3)cc2c1 has what recorded TGI?
Solution: > 100 µM

Exercise: Item Cc1cc(I)cc(CN(C)CCCN2CCOCC2)c1O has what recorded TGI?
Solution: > 100 µM

Origin of measurements: PubChem BioAssay (NCI)
